Assay: Inhibition of beta-adrenergic receptor in isoproterenol-stimulated guinea pig atrial muscle
Type: tissue-based, Cavia porcellus, Cardiac atrium
attribute_measured: IC50 (µg/mL)
The answer is to be given in µg/mL; state only the numeric part.

Past entries and their recorded results:
* CC(C)(C)NCC(O)COc1ccc(O)c2c1C[C@@H]1OCO[C@@H]1C2 (stereo not given in full) | 0.3
* CC(C)(C)NCC(O)COc1cccc2c1C[C@@H]1OCO[C@@H]1C2 (relative stereo) | 0.04
* CO[C@@H]1c2cccc(OCC(O)CNC(C)C)c2CC[C@H]1O.O=C(O)C(=O)O (relative stereo) | 0.05
* CC(C)NCC(O)COc1cccc2c1CC1OC1C2 (stereo not given) | 0.012

I would be grateful if you could share the reported IC50 for CC(C)NCC(O)COc1cccc2c1CC(O)CC2 (stereo not given) .
0.005

And the next one, CC(C)(C)NCC(O)COc1ccc2c(c1)C[C@@H](O)[C@@H](O)C2 (relative stereo) ?
10

And the next one, COc1ccc(CCNCC(O)COc2cccc3c2C[C@H](O)[C@H](O)C3)cc1OC (stereo not given in full) ?
0.07

And the next one, CC(C)NCC(O)COc1cccc2c1C[C@@H](O)[C@@H](O)C2 (relative stereo) ?
0.1

And the next one, CC(C)NCC(O)COc1cccc2c1CCCC2 (stereo not given) ?
0.01

---

Assay: Myocardial depressant activity in guinea pig atrial muscle assessed as maximal non-depressant dose by measuring contractility
Type: ADME, tissue-based, Cavia porcellus, Muscle tissue
attribute_measured: Activity (µg/mL)
The answer is to be given in µg/mL; state only the numeric part.

• CC(C)NCC(O)COc1cccc2ccccc12 (stereo not given) = 0.31

From here, focus on the item given below.
I would be grateful if you could share the reported Activity for CC(C)(Cc1ccccc1)NCC(O)COc1cccc2c1C[C@H](O)[C@H](O)C2 (stereo not given in full) .
3.1

---

Assay: Inhibition of beta-adrenergic receptor in isoproterenol-stimulated guinea pig atrial muscle
Assay type: tissue-based, Cavia porcellus, Cardiac atrium
attribute_measured: IC50 (µg/mL)
The answer is to be given in µg/mL; state only the numeric part.

I would be grateful if you could share the reported IC50 for CC(C)(C)NCC(O)COc1cc(O)c(O)c2c1CCCC2 (stereo unspecified) .
0.1

And the next one, Cl.NCC(O)COc1cccc2c1C[C@H](O)[C@H](O)C2 (stereo partly specified) ?
3.8

And the next one, CCN(CC)CC(O)COc1cccc2c1C[C@H](O)[C@H](O)C2 (stereo partly specified) ?
31

And the next one, CC(C)(C)NCC(O)COc1cccc2c1CCCC2=O (stereo unspecified) ?
0.006

And the next one, CC(C)N(Cc1ccccc1)CC(O)COc1cccc2c1C[C@H](O)[C@H](O)C2 (stereo partly specified) ?
80

---

Assay: Myocardial depressant activity in guinea pig atrial muscle assessed as maximal non-depressant dose by measuring contractility
Assay type: ADME, tissue-based, Cavia porcellus, Muscle tissue
Label rule, in plain words: Activity of 100 µg/mL and up is Satisfied, under 100 µg/mL is Not satisfied.

Reported Activity at or above 100 µg/mL? CC(C)NCC(O)COc1cccc2c1C[C@H](O)[C@@H](O)C2 (relative stereo)
Satisfied

---

Assay: Myocardial depressant activity in guinea pig atrial muscle assessed as maximal non-depressant dose by measuring contractility
Format: ADME, tissue-based, Cavia porcellus, Muscle tissue
Below, each of the compounds is paired with its reported Activity value.

I would be grateful if you could share the reported Activity for CC(C)NCC(O)COc1cccc2c1C[C@@H](O)[C@@H](O)C2 (relative stereo) .
> 1000 µg/mL

And the next one, COc1ccc(CCNCC(O)COc2cc(O)c(O)c3c2CCCC3)cc1OC.Cl (stereo not given) ?
3.1 µg/mL

And the next one, CC(C)NCC(O)COc1cccc2c1CCC(O)C2.O=C(O)C(=O)O (stereo not given) ?
31 µg/mL

---

Below, each of the molecules is paired with its reported Activity value.
Experiment: Myocardial depressant activity in guinea pig atrial muscle assessed as maximal non-depressant dose by measuring contractility
Assay type: ADME, tissue-based, Cavia porcellus, Muscle tissue
The answer is to be given in µg/mL; state only the numeric part.

Past entries and their recorded results:
* OC(CNCc1ccccc1)COc1cccc2c1C[C@H](O)[C@H](O)C2 (stereo partly specified) | 100
* CC(C)(C)NCC(O)COc1cc(O)c(O)c2c1CCCC2 (stereo unspecified) | 10
* COc1ccc(CCNCC(O)COc2ccc(O)c3c2CCCC3)cc1OC (stereo unspecified) | 3.1
* OC(CNCCc1ccccc1)COc1cccc2c1C[C@H](O)[C@H](O)C2 (stereo partly specified) | 100

I would be grateful if you could share the reported Activity for CC(C)(C)NCC(O)COc1cccc2c1CC=CC2 (stereo unspecified) .
0.3

And the next one, CC(C)(C)N(CCNCC(O)COc1cccc2c1C[C@H](O)[C@H](O)C2)Cc1ccccc1 (stereo partly specified) ?
31

And the next one, CC(C)(C)NCC(O)COc1ccc(O)c2c1CCCC2 (stereo unspecified) ?
10

And the next one, CC(C)NCC(O)COc1cccc2c1CC(O)CC2 (stereo unspecified) ?
3.1

And the next one, CO[C@@H]1c2cccc(OCC(O)CNC(C)C)c2CC[C@H]1O.O=C(O)C(=O)O (relative stereo) ?
31

---

Target: Adrenergic receptor beta (Rattus norvegicus, UniProt P18090+P10608+P26255)
Experiment: Inhibition of beta-adrenergic receptor in rat portal vein
Field 'label' (enum: rule met / rule not met). Set to rule met when IC50 is strictly under 0.5 µg/mL; else rule not met.

Could you please tell me whether IC50 recorded for CC(C)(C)CC(C)(C)NCC(O)COc1cccc2c1C[C@H](O)[C@H](O)C2 (stereo partly drawn) is less than 0.5 µg/mL?
rule not met

And the next one, CC(C)(Cc1ccccc1)NCC(O)COc1cccc2c1C[C@H](O)[C@H](O)C2 (stereo partly drawn) ?
rule met

And the next one, CC(C)(C)N(CCNCC(O)COc1cccc2c1C[C@H](O)[C@H](O)C2)Cc1ccccc1 (stereo partly drawn) ?
rule not met

And the next one, C=CCc1ccc(OCCNCC(O)COc2cccc3c2C[C@H](O)[C@H](O)C3)c(OC)c1 (stereo partly drawn) ?
rule not met

And the next one, CCCCNCC(O)COc1cccc2c1C[C@H](O)[C@H](O)C2 (stereo partly drawn) ?
rule met

And the next one, COc1ccccc1N1CCN(CC(O)COc2cccc3c2C[C@H](O)[C@H](O)C3)CC1 (stereo partly drawn) ?
rule met

And the next one, CO[C@H]1Cc2cccc(OCC(O)CNC(C)(C)C)c2C[C@H]1OC.Cl (relative stereo) ?
rule met

And the next one, CC(C)(C)NCC(O)COc1cccc2c1CC=CC2 (stereo not drawn) ?
rule met

---

Assay: Myocardial depressant activity in guinea pig atrial muscle assessed as maximal non-depressant dose by measuring contractility
Format: ADME, tissue-based, Cavia porcellus, Muscle tissue
attribute_measured: Activity (µg/mL)
The answer is to be given in µg/mL; state only the numeric part.

- CC(C)NCC(O)COc1ccc(O)c2c1CCCC2 (stereo not given): 10

I would be grateful if you could share the reported Activity for CC(C)NCC(O)COc1cccc2c1CCC(=O)C2 (stereo not given) .
3.1

And the next one, CC(C)NCC(O)COc1cccc2c1CCCC2 (stereo not given) ?
1

And the next one, CC(C)NCC(O)COc1cccc2c1CC=CC2 (stereo not given) ?
1

And the next one, CC(C)(C)NCC(O)COc1cccc2c1CC(O)CC2 (stereo not given) ?
1

And the next one, CO[C@@H]1c2c(cccc2OCC(O)CNC(C)C)CC[C@@H]1O.O=C(O)C(=O)O (relative stereo) ?
10

---

Test: Myocardial depressant activity in guinea pig atrial muscle assessed as maximal non-depressant dose by measuring contractility
Type: ADME, tissue-based, Cavia porcellus, Muscle tissue
Below, each of the molecules is paired with its reported Activity value.

Past entries and their recorded results:
- OC(COc1cccc2c1C[C@H](O)[C@H](O)C2)CN1CCN(c2ccccn2)CC1 (stereo partly drawn): > 310 µg/mL
- COc1ccc(CCNCC(O)COc2cccc3c2C[C@H](O)[C@H](O)C3)cc1OC (stereo partly drawn): > 1000 µg/mL

From here, focus on the item given below.
I would be grateful if you could share the reported Activity for CC(C)(C)NCC(O)COc1ccc2c(c1)C[C@@H](O)[C@@H](O)C2 (relative stereo) .
> 1000 µg/mL

---

Experiment: Inhibition of beta-adrenergic receptor in isoproterenol-stimulated guinea pig atrial muscle
Type: tissue-based, Cavia porcellus, Cardiac atrium
Class (by IC50) -- zone 1 = under 0.01 µg/mL, zone 2 = from 0.01 µg/mL up to 0.6 µg/mL, zone 3 = 0.6 µg/mL and over

• CCOc1ccccc1OCCNCC(O)COc1cccc2c1C[C@H](O)[C@H](O)C2 (stereo partly specified) = zone 2

Now consider the entry below.
Any idea which band CC(C)(C)[N+](C)(C)CC(O)COc1cccc2c1C[C@H](O)[C@H](O)C2.[I-] (stereo partly specified) is in?
zone 3
